# EXPERIMENT_NOTES: Cmax in C57Bl/6 DIO mouse at 22 mg/kg, po
# Format: ADME, organism-based
# Set-up: dose 22 mg/kg, route oral
# RECORDED_CONDITIONS: in vivo
READOUT_LABEL: Cmax (ng/mL)
Number only, in ng/mL; omit the unit.

Which value of Cmax has been reported for Cc1ccccc1[C@H](C/C(=N\O)c1ccc(=O)n(C)c1)c1ccc(S(C)(=O)=O)cc1 in the records? 870

====

# EXPERIMENT_NOTES: Half life in C57Bl/6 DIO mouse at 1 mg/kg, iv
# Format: ADME, organism-based
# Design: dose 1 mg/kg, route intravenous
# RECORDED_CONDITIONS: in vivo
READOUT_LABEL: half-life (h)
Number only, in h; omit the unit.

Previously resolved entries follow.
Cc1ccccc1[C@H](C/C(=N\O)c1ccc(=O)n(C)c1)c1ccc(-c2ccc(C(=O)O)cc2)cc1    0.7
Cc1cc(/C(C[C@H](c2ccc(-c3ccc(C(=O)O)cc3)cc2)c2ccccc2C)=N/O)ccn1    0.3
Cc1ccccc1[C@H](C/C(=N\O)c1ccc(=O)n(C)c1)c1ccc(S(C)(=O)=O)cc1    2.2

// switching to the query compound
Which value of half-life has been reported for Cc1cc(/C(C[C@H](c2ccc(N3CCC(C(=O)O)CC3)cc2)c2ccccc2C)=N/O)ccn1 in the records? 1.7

====

# EXPERIMENT_NOTES: Cmax in C57Bl/6 DIO mouse at 30 mg/kg, po
# Type: ADME, organism-based
# Set-up: dose 30 mg/kg, route oral
# RECORDED_CONDITIONS: in vivo
READOUT_LABEL: Cmax (ng/mL)
Number only, in ng/mL; omit the unit.

Which value of Cmax has been reported for Cc1cc(/C(C[C@H](c2ccc(N3CCC(C(=O)O)CC3)cc2)c2ccccc2C)=N/O)ccn1 in the records? 41000

====

# EXPERIMENT_NOTES: Clearance in C57Bl/6 DIO mouse at 1 mg/kg, iv
# Format: ADME, organism-based
# Set-up: dose 1 mg/kg, route intravenous
# RECORDED_CONDITIONS: in vivo
Each entry below carries its recorded clearance.
Number only, in mL/min/kg; omit the unit.

Previously resolved entries follow.
Cc1cc(/C(C[C@H](c2ccc(-c3ccc(C(=O)O)cc3)cc2)c2ccccc2C)=N/O)ccn1    15
Cc1cc(/C(C[C@H](c2ccc(N3CCC(C(=O)O)CC3)cc2)c2ccccc2C)=N/O)ccn1    5
Cc1ccccc1[C@H](C/C(=N\O)c1ccc(=O)n(C)c1)c1ccc(-c2ccc(C(=O)O)cc2)cc1    5

// switching to the query molecule
Which value of clearance has been reported for Cc1ccccc1[C@H](C/C(=N\O)c1ccc(=O)n(C)c1)c1ccc(S(C)(=O)=O)cc1 in the records? 67

====

# EXPERIMENT_NOTES: Stability of the compound in aqueous solution assessed as recovery at pH 1 to 10 after 2 hrs
# Assay type: physicochemical
# RECORDED_CONDITIONS: read-out: Drug recovery
READOUT_LABEL: remaining at 2 h

Which value of remaining at 2 h has been reported for CN(C)c1ccc(C(C/C(=N\O)c2ccncc2)c2ccccc2)cc1 (stereo unspecified) in the records? > 90%

====

# EXPERIMENT_NOTES: Oral bioavailability in C57Bl/6 DIO mouse at 49 mg/kg
# Type: ADME, organism-based
# RECORDED_CONDITIONS: in vivo
READOUT_LABEL: bioavailability (%)
Number only, in %; omit the unit.

Which value of bioavailability has been reported for Cc1ccccc1[C@H](C/C(=N\O)c1ccc(=O)n(C)c1)c1ccc(-c2ccc(C(=O)O)cc2)cc1 in the records? 67

====

# EXPERIMENT_NOTES: 1-octanol-aqueous buffer distribution coefficient, log D of the compound at 0.5 mM at pH 7.4 after 2 hrs by shake flask method
# Assay type: physicochemical
READOUT_LABEL: logD at 2 h, 500 µM

Cc1cc(/C(C[C@H](c2ccc(-c3ccc(C(=O)O)cc3)cc2)c2ccccc2C)=N/O)ccn1    2.7
Cc1ccccc1[C@@H](C/C(=N\O)c1ccc(=O)n(C)c1)c1ccc(-c2ccc(C(=O)O)cc2)cc1    1.5
Cc1cc(/C(C[C@@H](c2ccc(-c3ccc(C(=O)O)cc3)cc2)c2ccccc2C)=N/O)ccn1    2.7
Cc1cc(/C(CC(c2ccc(Br)cc2)c2ccccc2C)=N/O)ccn1 (stereo not given)    > 4
Cc1cc(/C(C[C@H](c2ccc(N3CCC(C(=O)O)CC3)cc2)c2ccccc2C)=N/O)ccn1    1.5
Cc1ccccc1[C@@H](C/C(=N\O)c1ccc(=O)n(C)c1)c1ccc(S(C)(=O)=O)cc1    1.9
Cc1ccccc1[C@H](C/C(=N\O)c1ccc(=O)n(C)c1)c1ccc(S(C)(=O)=O)cc1    1.7
Cc1ccccc1[C@H](C/C(=N\O)c1ccc(=O)n(C)c1)c1ccc(-c2ccc(C(=O)O)cc2)cc1    1.3

Which value of logD at 2 h, 500 µM has been reported for Cc1cc(/C(C[C@@H](c2ccc(N3CCC(C(=O)O)CC3)cc2)c2ccccc2C)=N/O)ccn1 in the records? 1.6

Entry to check: CN(C)c1ccc(C(C/C(=N\O)c2ccncc2)c2ccccc2)cc1 (stereo not given) 3.4

====

# EXPERIMENT_NOTES: Volume of distribution at steady state in C57Bl/6 DIO mouse at 1 mg/kg, iv
# Type: ADME, organism-based
# Parameters: dose 1 mg/kg, route intravenous
# RECORDED_CONDITIONS: in vivo, read-out: Vdss
Each entry below carries its recorded Vd.
Number only, in L/kg; omit the unit.

Cc1cc(/C(C[C@H](c2ccc(-c3ccc(C(=O)O)cc3)cc2)c2ccccc2C)=N/O)ccn1    0.5
Cc1ccccc1[C@H](C/C(=N\O)c1ccc(=O)n(C)c1)c1ccc(-c2ccc(C(=O)O)cc2)cc1    0.5
Cc1ccccc1[C@H](C/C(=N\O)c1ccc(=O)n(C)c1)c1ccc(S(C)(=O)=O)cc1    3.3

// switching to the query compound
Which value of Vd has been reported for Cc1cc(/C(C[C@H](c2ccc(N3CCC(C(=O)O)CC3)cc2)c2ccccc2C)=N/O)ccn1 in the records? 0.4

====

# EXPERIMENT_NOTES: Oral bioavailability in C57Bl/6 DIO mouse at 30 mg/kg
# Type: ADME, organism-based
# RECORDED_CONDITIONS: in vivo
READOUT_LABEL: bioavailability (%)
Number only, in %; omit the unit.

Which value of bioavailability has been reported for Cc1cc(/C(C[C@H](c2ccc(N3CCC(C(=O)O)CC3)cc2)c2ccccc2C)=N/O)ccn1 in the records? 100

====

# EXPERIMENT_NOTES: Oral bioavailability in C57Bl/6 DIO mouse at 22 mg/kg
# Format: ADME, organism-based
# RECORDED_CONDITIONS: in vivo
READOUT_LABEL: bioavailability (%)
Number only, in %; omit the unit.

Which value of bioavailability has been reported for Cc1ccccc1[C@H](C/C(=N\O)c1ccc(=O)n(C)c1)c1ccc(S(C)(=O)=O)cc1 in the records? 29
